# Subject Of Test: Helios (IKZF2) (Homo sapiens, UniProt Q96SW2+Q9UKS7)
# Sequence (Q9UKS7 whole entry): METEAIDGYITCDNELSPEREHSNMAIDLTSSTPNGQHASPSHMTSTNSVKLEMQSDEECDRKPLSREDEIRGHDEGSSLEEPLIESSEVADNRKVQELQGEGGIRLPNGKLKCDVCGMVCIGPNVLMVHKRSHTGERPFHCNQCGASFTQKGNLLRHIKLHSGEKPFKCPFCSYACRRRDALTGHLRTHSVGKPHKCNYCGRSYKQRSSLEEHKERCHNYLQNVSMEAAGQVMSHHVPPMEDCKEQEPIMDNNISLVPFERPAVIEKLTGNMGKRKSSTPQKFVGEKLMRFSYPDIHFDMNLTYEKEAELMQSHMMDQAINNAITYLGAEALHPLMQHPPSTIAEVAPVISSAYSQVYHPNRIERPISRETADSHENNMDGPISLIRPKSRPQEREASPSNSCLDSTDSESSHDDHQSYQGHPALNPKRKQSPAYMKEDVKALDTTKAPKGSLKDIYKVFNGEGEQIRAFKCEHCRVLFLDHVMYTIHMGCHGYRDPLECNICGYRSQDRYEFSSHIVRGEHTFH
# Sequence (Q96SW2 whole entry): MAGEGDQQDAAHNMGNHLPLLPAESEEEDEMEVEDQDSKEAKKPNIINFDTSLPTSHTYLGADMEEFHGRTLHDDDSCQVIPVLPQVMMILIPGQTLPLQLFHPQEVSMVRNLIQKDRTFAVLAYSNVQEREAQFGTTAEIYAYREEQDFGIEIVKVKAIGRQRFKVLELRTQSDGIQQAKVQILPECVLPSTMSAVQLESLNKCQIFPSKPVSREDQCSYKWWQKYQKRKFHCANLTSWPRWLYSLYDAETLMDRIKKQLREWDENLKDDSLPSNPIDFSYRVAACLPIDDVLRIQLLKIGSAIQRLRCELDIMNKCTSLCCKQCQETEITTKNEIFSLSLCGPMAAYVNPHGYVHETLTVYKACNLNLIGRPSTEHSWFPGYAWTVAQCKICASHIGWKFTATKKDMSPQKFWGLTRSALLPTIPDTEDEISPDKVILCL
# Sequence (Q16531 whole entry partner): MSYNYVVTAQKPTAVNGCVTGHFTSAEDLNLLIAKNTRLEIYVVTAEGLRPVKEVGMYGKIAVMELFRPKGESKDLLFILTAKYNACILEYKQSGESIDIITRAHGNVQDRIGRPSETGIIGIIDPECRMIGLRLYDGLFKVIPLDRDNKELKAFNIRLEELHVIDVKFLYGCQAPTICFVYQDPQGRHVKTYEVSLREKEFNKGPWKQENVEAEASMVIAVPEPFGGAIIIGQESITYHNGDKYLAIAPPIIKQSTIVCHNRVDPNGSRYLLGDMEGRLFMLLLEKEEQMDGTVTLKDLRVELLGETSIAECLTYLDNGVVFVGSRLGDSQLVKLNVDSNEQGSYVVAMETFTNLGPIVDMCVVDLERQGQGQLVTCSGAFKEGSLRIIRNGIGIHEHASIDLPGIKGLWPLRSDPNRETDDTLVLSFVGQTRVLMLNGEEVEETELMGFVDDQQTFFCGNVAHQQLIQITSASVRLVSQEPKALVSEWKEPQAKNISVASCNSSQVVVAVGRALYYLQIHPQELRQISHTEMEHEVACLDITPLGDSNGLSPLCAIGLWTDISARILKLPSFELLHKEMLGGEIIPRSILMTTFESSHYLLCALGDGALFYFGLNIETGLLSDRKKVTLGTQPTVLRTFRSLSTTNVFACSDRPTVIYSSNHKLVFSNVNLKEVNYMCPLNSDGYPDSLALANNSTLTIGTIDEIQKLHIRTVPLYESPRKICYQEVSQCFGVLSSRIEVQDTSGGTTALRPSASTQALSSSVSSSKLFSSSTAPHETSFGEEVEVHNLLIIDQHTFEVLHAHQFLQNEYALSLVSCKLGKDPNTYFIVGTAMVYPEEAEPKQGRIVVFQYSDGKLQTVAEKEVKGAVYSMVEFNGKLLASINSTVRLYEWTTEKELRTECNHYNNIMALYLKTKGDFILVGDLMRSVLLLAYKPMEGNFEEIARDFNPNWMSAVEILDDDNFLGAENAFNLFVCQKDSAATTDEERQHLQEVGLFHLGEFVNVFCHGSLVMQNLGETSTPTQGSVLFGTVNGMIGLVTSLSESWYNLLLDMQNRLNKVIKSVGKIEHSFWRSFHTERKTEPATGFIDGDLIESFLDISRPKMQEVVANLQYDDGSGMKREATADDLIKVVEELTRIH
# Test Description: Screening of Helios protein degraders using Nano-Glo HiBiT cell line (HiBiT-IKZF2)
# Assay type: cell-based
# Settings: compound 1 μM, 6 hours, HiBiT-Helios knock-in Jurkat cells; read-out: HiBiT-IKZF2 Residual amount of Helios (%) 1 μM
Readout Label: remaining activity at 1 µM (%)

Cc1c(C(=O)N2CCC(c3ccc4c(c3F)CN(C3CCC(=O)NC3=O)C4=O)CC2)[nH]c2cc(Cl)c(F)cc12 (stereo not shown) :: 14.1

I: CCc1c(C(=O)N2CCC(c3ccc4c(c3)CN(C3CCC(=O)NC3=O)C4=O)CC2)[nH]c2ccccc12 (stereo not shown)
II: COc1ccc2c(C)c(C(=O)N3CCC(c4ccc5c(c4)CN(C4CCC(=O)NC4=O)C5=O)CC3)[nH]c2c1 (stereo not shown)
Request: Return label of the item with the larger remaining activity at 1 µM. Candidates: I , II . Reply briefly: the label of your chosen item.
Result: I

====

# Subject Of Test: Helios (IKZF2) (Homo sapiens, UniProt Q96SW2+Q9UKS7)
# Test Description: Screening of Helios protein degraders using Nano-Glo HiBiT cell line (HiBiT-IKZF2)
# Assay type: cell-based
# Settings: compound 1 μM, 6 hours, HiBiT-Helios knock-in Jurkat cells; read-out: HiBiT-IKZF2 Residual amount of Helios (%) 1 μM
Readout Label: remaining activity at 1 µM (%)

Study these solved cases before continuing.
Cc1c(C(=O)N2CCC(c3ccc4c(c3)CN(C3CCC(=O)NC3=O)C4=O)CC2)[nH]c2cc(Cl)cc(Cl)c12 (stereo not shown) :: 56.6
COc1ccc2cc(C(=O)Nc3ccc4c(c3)CN(C3CCC(=O)NC3=O)C4=O)ccc2c1 (stereo not shown) [Comparative Substance 4, reference compound] :: 58
Cc1c(C(=O)N2CCC(c3ccc4c(c3)CN(C3CCC(=O)NC3=O)C4=O)CC2)[nH]c2cc(Cl)c(CN3CCNCC3)cc12 (stereo not shown) :: 38.4
Cc1c(C(=O)N2CCC(c3ccc4c(c3)CN(C3CCC(=O)NC3=O)C4=O)CC2)[nH]c2cc(Cl)c(O)cc12 (stereo not shown) :: 15.7
O=C1CCC(N2Cc3cc(C4CCN(C(=O)c5cc6cnc(Cl)cc6[nH]5)CC4)ccc3C2=O)C(=O)N1 (stereo not shown) :: 58.1
Cc1c(C(=O)N2CCC(c3ccc4c(c3)CN(C3CCC(=O)NC3=O)C4=O)CC2)[nH]c2cc(Cl)c(Cl)cc12 (stereo not shown) :: 43.3

1: O=C1CCC(N2Cc3cc(C4CCN(C(=O)c5[nH]c6ccccc6c5F)CC4)ccc3C2=O)C(=O)N1 (stereo not shown)
2: O=C1CCC(N2Cc3cc(C4CCN(C(=O)c5[nH]c6ccccc6c5CN5CCOCC5)CC4)ccc3C2=O)C(=O)N1 (stereo not shown)
Request: Given the two records 1 and 2 , choose the one whose remaining activity at 1 µM value is lower. Reply briefly: the label of your chosen item.
Result: 2

====

# Subject Of Test: Helios (IKZF2) (Homo sapiens, UniProt Q96SW2+Q9UKS7)
# Test Description: Screening of Helios protein degraders using Nano-Glo HiBiT cell line (HiBiT-IKZF2)
# Type: cell-based
# Settings: compound 10 μM, 6 hours, HiBiT-Helios knock-in Jurkat cells; read-out: HiBiT-IKZF2 Residual amount of Helios (%) 10 μM
Readout Label: remaining activity at 10 µM (%)

O=C1CCC(N2Cc3cc(C4CCN(C(=O)c5cc6cccc(Cl)c6[nH]5)CC4)ccc3C2=O)C(=O)N1 (stereo not drawn) :: 109

A: O=C1CCC(N2Cc3cc(C4CCN(C(=O)c5nc6ccc(Cl)cc6[nH]5)CC4)ccc3C2=O)C(=O)N1 (stereo not drawn) [Comparative Substance 3, reference compound]
B: Cc1c(C(=O)N2CCC(c3ccc4c(c3)C(=O)N(C3CCC(=O)NC3=O)C4=O)CC2)[nH]c2cc(Cl)ccc12 (stereo not drawn)
Request: Return label of the item with the larger remaining activity at 10 µM. Candidates: A , B . Reply briefly: the label of your chosen item.
Result: A
(A: 100%, B: 36.1%)

These entries and their values trace back to patent US20260216164A1.
